These data points were gathered from patent US7407939.

biological target: protein kinase B, P31749; test: cell-based or functional assay
Sequence (P31749 whole entry): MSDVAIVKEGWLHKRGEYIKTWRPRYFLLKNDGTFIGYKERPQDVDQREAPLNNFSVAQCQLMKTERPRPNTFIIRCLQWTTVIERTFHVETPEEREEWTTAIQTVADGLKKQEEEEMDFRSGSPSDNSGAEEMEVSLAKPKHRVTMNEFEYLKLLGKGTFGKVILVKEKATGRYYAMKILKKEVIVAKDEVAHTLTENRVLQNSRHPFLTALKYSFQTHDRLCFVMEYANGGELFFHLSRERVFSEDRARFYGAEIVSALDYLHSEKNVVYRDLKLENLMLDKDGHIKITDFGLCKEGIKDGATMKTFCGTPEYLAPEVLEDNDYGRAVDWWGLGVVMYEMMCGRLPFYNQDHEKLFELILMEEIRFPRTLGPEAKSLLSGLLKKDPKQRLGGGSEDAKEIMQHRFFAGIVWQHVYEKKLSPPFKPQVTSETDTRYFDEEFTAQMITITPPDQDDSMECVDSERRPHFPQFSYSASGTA
Where no end group is shown, it is not given here. Side-chain parts run from the residue outwards. [ ]: non-standard residue; d: D form. S‑IQ = 5-mercaptoaminopropyl isoquinoline; Abu = CC[C@H](N)C(=O)O; βAla = NCCC(=O)O
Experimental readout: PKB IC50 (µM)
Give the value, in units of µM, as a plain number.

Binder	Experimental readout	Readout number
RPRTS[Abu]F (not fully specified (C-terminus); printed as Arg-Pro-Arg-Thr-Ser-Abu-Phe-(O-CO-N-bAla-SO2-IQ); also: -(O-CO-N-bAla-SO2-IQ) on Phe7, attachment unclear) [PTR 6020]	PKB IC50	18

# input for lookup
So, RPRTE([βAla-S‑IQ])SF [PTR 6102] ? Its PKB IC50 was 0.3
